Target: Gonadotropin-releasing hormone receptor (Rattus norvegicus)
Sequence (P30969 whole entry): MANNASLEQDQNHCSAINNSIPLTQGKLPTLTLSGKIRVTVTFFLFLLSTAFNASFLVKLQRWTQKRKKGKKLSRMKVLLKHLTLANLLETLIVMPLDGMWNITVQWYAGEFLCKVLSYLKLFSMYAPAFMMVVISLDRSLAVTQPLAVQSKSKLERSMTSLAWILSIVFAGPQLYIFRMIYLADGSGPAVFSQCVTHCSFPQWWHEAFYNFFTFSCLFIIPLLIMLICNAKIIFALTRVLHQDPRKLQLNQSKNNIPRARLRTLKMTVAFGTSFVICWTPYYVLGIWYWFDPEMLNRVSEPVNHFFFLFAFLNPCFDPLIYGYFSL
Test: Compound tested for the inhibition of GnRH-stimulated luteinizing hormone (LH) release in rat pituitary cells
Type: functional, cell-based, Pituitary gland cell
REPORTED_PROPERTY: IC50 (nM)
Give bare numbers, in nM.

Using the record for `Cc1cc(C)cc(-c2[nH]c3ccc(C(C)(C)C(=O)N4CCCC4)cc3c2CCNCCCCc2ccncc2)c1` , state its measured IC50. 340

* * *

Provide the reported IC50 of each item.
Molecular target: Gonadotropin-releasing hormone receptor (Rattus norvegicus)
Assay: Inhibition of GnRH-stimulated luteinizing hormone (LH) release in rat pituitary cells
Format: functional, cell-based, Pituitary gland cell
One number for each entry, in nM.

Examples with answers:
CCN(C(=O)c1ccc2[nH]c(-c3cc(C)cc(C)c3)c(CCNCCCCc3cccnc3)c2c1)C(C)C 830
Cc1cc(C)cc(-c2[nH]c3ccc(C(=O)N(C)C)cc3c2CCNCCCCc2ccncc2)c1 1460
Cc1cc(C)cc(-c2[nH]c3ccc(C(C)(C)C(=O)N4CCCC4)cc3c2CCNCCCCc2cccnc2)c1 290

We now examine a further molecule.
In one line, give reported IC50 of the entry `CCN(CC)C(=O)c1ccc2[nH]c(-c3cc(C)cc(C)c3)c(CCNCCCCc3ccncc3)c2c1` . 470

* * *

Target: Gonadotropin-releasing hormone receptor (Homo sapiens)
Sequence (P30968 whole entry): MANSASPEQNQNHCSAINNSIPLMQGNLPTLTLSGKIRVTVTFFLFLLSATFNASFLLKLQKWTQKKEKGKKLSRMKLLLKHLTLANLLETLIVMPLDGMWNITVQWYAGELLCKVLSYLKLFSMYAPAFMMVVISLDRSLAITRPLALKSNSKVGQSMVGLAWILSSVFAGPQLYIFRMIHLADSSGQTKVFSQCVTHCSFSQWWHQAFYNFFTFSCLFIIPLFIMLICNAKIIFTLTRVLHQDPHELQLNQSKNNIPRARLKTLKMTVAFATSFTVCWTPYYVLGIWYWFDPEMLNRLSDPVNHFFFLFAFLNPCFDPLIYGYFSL
Assay: Inhibition of GnRH-stimulated phosphatidylinositol (PI) hydrolysis in cloned chinese hamster ovary (CHO) cells expressing human GnRH receptor.
Assay type: functional, cell-based
REPORTED_PROPERTY: IC50 (nM)
Numbers only, in nM.

# example entries with known answers
MOLECULE	IC50 [nM]
CCN(CC)C(=O)C(C)(C)c1ccc2[nH]c(-c3cc(C)cc(C)c3)c(CCNCCCCc3ccncc3)c2c1	58
CCN(C(=O)c1ccc2[nH]c(-c3cc(C)cc(C)c3)c(CCNCCCCc3ccncc3)c2c1)C1CCCCC1	22
Cc1cc(C)cc(-c2[nH]c3ccc(C4(C(=O)N5C6CCC5CC6)CCC4)cc3c2CCNCCCCc2ccncc2)c1	170
Cc1cc(C)cc(-c2[nH]c3ccc(C(=O)N(CC(F)(F)F)CC(F)(F)F)cc3c2CCNCCCCc2ccncc2)c1	91
Cc1cc(C)cc(-c2[nH]c3ccc(C(=O)NC(C)C)cc3c2CCNCCCCc2cccnc2)c1	1200

Quick one: give me IC50 for each item below, same order please.
1. COCCN(CCOC)C(=O)c1ccc2[nH]c(-c3cc(C)cc(C)c3)c(CCNCCCCc3cccnc3)c2c1
2. Cc1cc(C)cc(-c2[nH]c3ccc(C(C)(C)C(=O)N4C5CCC4CC5)cc3c2CCN(CCCCc2ccncc2)CC(C)C)c1
3. Cc1cc(C)cc(-c2[nH]c3ccc(C(=O)N(CC(C)C)CC(C)C)cc3c2CCNCCCCc2cccnc2)c1
4. Cc1cc(C)cc(-c2[nH]c3ccc(C(C)(C)C(=O)N(CC(C)C)CC(C)C)cc3c2CCNCCCCc2ccncc2)c1
5. Cc1cc(C)cc(-c2[nH]c3ccc(C(C)(C)C(=O)N4C(C)CCC4C)cc3c2CCNCCCCc2ccncc2)c1 (configuration not stated)
6. Cc1cc(C)cc(-c2[nH]c3ccc(C(C)(C)C(=O)N4C5CCC4CC5)cc3c2CCNCCCCc2ccncc2)c1
7. Cc1cc(C)cc(-c2[nH]c3ccc(C(C)(C)C(N)=O)cc3c2CCNCCCCc2cccnc2)c1

[610, 300, 120, 8.3, 15, 18, 350]

Where these numbers come from: ChEMBL document CHEMBL1134123
